Just for reference, PubChem BioAssay is where these values come from.

As shown below, each of these compounds has a reported viability decrease (inhibition) value.
Assay: decreased DLD-1 cellular survival, CellTiter-Glo luminescent readout, NPC compound collection, primary HTS (AID 1117346)
Settings: DLD-1 viability, CellTiter-Glo luminescence; at 20 µM (top of the series)
Active and inactive are the calls of the source.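 Rule for the calls: active = compounds that lower survival of DLD-1 colon cancer cells in the luminescence readout, no cutoff given; inactive = the rest.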
ASSAY_ENDPOINT: viability decrease (inhibition)

CCNC(=O)N1CCN(CCCC(c2ccc(F)cc2)c2ccc(F)cc2)CC1    57.7% (active)
CC1(c2ccccc2)OC(C(=O)O)=CC1=O (stereo unspecified)    4.95% (inactive)
CCCCCOC(=O)Nc1nc(=O)n([C@@H]2O[C@H](C)[C@@H](O)[C@H]2O)cc1F    -8.6% (inactive)
OCc1ccccn1    -10.2% (inactive)
COP(=O)(OC)OC(c1ccc(Cl)cc1)P(=O)(OC)OC (stereo unspecified)    1.6% (inactive)
Cc1c(N)cccc1C(F)(F)F    6.9% (inactive)
